Assay: Clearance in Sprague-Dawley rat at 2 mg/kg, iv
Type: ADME, organism-based
Conditions: in vivo
endpoint name: clearance (mL/min/kg)
Expressed in mL/min/kg, but write only the number.

q: Kindly indicate its recorded clearance. Item: Cc1cc(/C=C/C#N)cc(C)c1Oc1ccnc(Nc2ccc(N3CCS(=O)(=O)CC3)c(F)c2)n1
a: 106

----------
Experiment: Cmax in Sprague-Dawley rat at 2 mg/kg, iv
Type: ADME, organism-based
Settings: in vivo
endpoint name: Cmax (ng/mL)
# output: bare number, implied unit ng/mL

q: Consider the compound Cc1cc(/C=C/C#N)cc(C)c1Oc1ccnc(Nc2ccc(N3CCS(=O)(=O)CC3)c(F)c2)n1 and give its recorded Cmax.
a: 390

----------
Target: Cytochrome P450 1A2 (Homo sapiens, UniProt P05177)
Sequence (P05177 whole entry): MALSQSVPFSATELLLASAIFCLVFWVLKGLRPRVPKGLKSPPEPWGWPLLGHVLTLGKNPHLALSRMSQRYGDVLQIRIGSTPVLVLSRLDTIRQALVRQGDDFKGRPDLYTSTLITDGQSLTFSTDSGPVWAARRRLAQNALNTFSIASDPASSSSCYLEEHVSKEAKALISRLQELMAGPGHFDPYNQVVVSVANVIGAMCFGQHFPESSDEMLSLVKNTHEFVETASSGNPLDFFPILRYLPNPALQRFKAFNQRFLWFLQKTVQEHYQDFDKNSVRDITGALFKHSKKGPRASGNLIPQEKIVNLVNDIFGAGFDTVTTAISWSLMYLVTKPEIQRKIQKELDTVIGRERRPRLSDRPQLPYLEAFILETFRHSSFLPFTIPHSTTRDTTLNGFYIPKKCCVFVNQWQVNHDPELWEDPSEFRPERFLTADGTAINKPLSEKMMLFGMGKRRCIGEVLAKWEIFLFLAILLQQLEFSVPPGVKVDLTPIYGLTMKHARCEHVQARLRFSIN
endpoint name: pIC50
Friendly reminder that pIC50 comes from taking -log10 of the concentration in mol/L.

q: Return pIC50 for the following compound: Cc1cc(/C=C/C#N)cc(C)c1Oc1ccnc(Nc2ccc(N3CCS(=O)(=O)CC3)c(F)c2)n1
a: 4.67

----------
Assay: Cytotoxicity against human MT4 cells assessed as reduction in cell viability by MTT assay
Assay type: toxicity, cell-based
Reported CC50 values are given for each entry in this list.
Note: unit µM is implicit; provide only the numeric part.

q: Provide one value: measured CC50 of Cc1cc(/C=C/C#N)cc(C)c1Oc1ccnc(Nc2ccc(C3CCN(S(=O)(=O)N(C)C)CC3)cc2)n1
a: 6.27

q: Provide measured CC50 value, entry: Cc1cc(/C=C/C#N)cc(C)c1Oc1ccnc(Nc2ccc(N3CCN(S(C)(=O)=O)CC3)c(F)c2)n1
a: 3.21

q: Please report the measured CC50 for Cc1cc(/C=C/C#N)cc(C)c1Oc1ccnc(Nc2ccc(N3CCN(S(C)(=O)=O)CC3)cc2)n1
a: 2.57

----------
Assay: Volume of distribution in Sprague-Dawley rat at 2 mg/kg, iv
Type: ADME, organism-based
Settings: in vivo
endpoint name: Vd (L/kg)
Report the figure in L/kg without appending any unit label.

q: State, in one line, measured Vd of Cc1cc(/C=C/C#N)cc(C)c1Oc1ccnc(Nc2ccc(N3CCS(=O)(=O)CC3)c(F)c2)n1
a: 60.1

----------
The entries below are paired with their reported selectivity ratio.
Test: Selectivity index, ratio of CC50 for human MT4 cells to EC50 for antiviral activity against HIV IIIB

Below, each entry is followed by its recorded selectivity ratio result.
mol: CCS(=O)(=O)N1CCN(c2ccc(Nc3nccc(Oc4c(C)cc(/C=C/C#N)cc4C)n3)cc2F)CC1
result: 37900
//
mol: Cc1cc(/C=C/C#N)cc(C)c1Oc1ccnc(Nc2ccc(C3CCN(S(C)(=O)=O)CC3)cc2)n1
result: 1030
//
mol: Cc1cc(C#N)cc(C)c1Oc1ccnc(Nc2ccc(N3CCN(S(=O)(=O)C(C)C)CC3)c(F)c2)n1
result: 24500
//
mol: CCS(=O)(=O)N1CCN(c2ccc(Nc3nccc(Oc4c(C)cc(/C=C/C#N)cc4C)n3)cc2)CC1
result: > 7740

q: Return value of selectivity ratio for input Cc1cc(/C=C/C#N)cc(C)c1Oc1ccnc(Nc2ccc(N3CCN(S(=O)(=O)C(C)C)CC3)c(F)c2)n1 , no commentary.
a: 3620

q: Supply recorded selectivity ratio for Cc1cc(/C=C/C#N)cc(C)c1Oc1ccnc(Nc2ccc(N3CCOCC3)c(F)c2)n1 here.
a: 49600

q: In one line, give reported selectivity ratio of the entry Cc1cc(C#N)cc(C)c1Oc1ccnc(Nc2ccc(N3CCN(S(=O)(=O)N(C)C)CC3)c(F)c2)n1 .
a: 10300

q: Please report selectivity ratio for the following compound: Cc1cc(/C=C/C#N)cc(C)c1Oc1ccnc(Nc2ccc(C3CCN(S(=O)(=O)C(C)C)CC3)cc2)n1
a: 298

q: Recall and state the measured selectivity ratio for Cc1cc(/C=C/C#N)cc(C)c1Oc1ccnc(Nc2ccc(N3CCN(S(=O)(=O)C4CC4)CC3)c(F)c2)n1 .
a: 32100

q: Give reported selectivity ratio value for Cc1cc(/C=C/C#N)cc(C)c1Oc1ccnc(Nc2ccc(N3CCN(S(=O)(=O)C(C)C)CC3)cc2)n1
a: 193

q: Return selectivity ratio for the following compound: Cc1cc(C#N)cc(C)c1Oc1ccnc(Nc2ccc(N3CCN(S(=O)(=O)C4CC4)CC3)c(F)c2)n1
a: > 40600
